- System: K562 CRISPRi cells
- protocolText: Constant region variant library pooled growth screen, K562
- Format: cell-based, human
- settings: sgRNA constant region variants; activity relative to the unmodified constant region cr995
Mean relative activity less than 0.3 is condition met; Mean relative activity greater than or equal to 0.3 is condition not met.

cr480 (nucleic acid, listed as DNA, chemistry not fully specified) guide: GTTTAAGAGCTAAGCTGGAAACAGCATAGCAAGTTTAAATAAGGCTAGTCCGTTATCAAATTGAAAAATTGACACCTAGTAGGTGTT = condition met
cr654 (nucleic acid, listed as DNA, chemistry not fully specified) guide: GTTTAAGAGCTAAGCTGGAAACAGCATAGCAAGATTAAATAAGGCTAGTCCGTTATCAACTTGATAAAGTGGCACCGAGTCGGTGCT = condition met
cr069 (nucleic acid, listed as DNA, chemistry not fully specified) guide: GCTTAAAAGCTAAGCTGGAAACAGCATAGCAAGTTTAAATAAGGCTAGTCCGTTATCAACTTGAAAAAGTGGCACCGAGTCGGTGCT = condition not met
cr210 (nucleic acid, listed as DNA, chemistry not fully specified) guide: GTTTAAGAGCTAAGCTGGAAACAGCATAGCAAGTTTAAATAAGGCTAGTCCGTTATCTACTTGACAAAGTGGCACCGAGTCGGTGCT = condition not met
cr798 (nucleic acid, listed as DNA, chemistry not fully specified) guide: GTTTAAGAGCTAAGCTGGAAACAGCATAGCAAGTTTAAATAAGGATATTCCGTTATCAACTTGAAAAAGTGGCATCCAGTGGATGCT = condition met

*Q* # TODO verify Mean relative activity < 0.3 strictly for this molecule: cr311 (nucleic acid, listed as DNA, chemistry not fully specified) guide: GTTTAAGAGCTAAGCTGGAAACAGCATAGCAAGTTTAAATAAGGCTTGTCCGTTATATACTTGAAAAAGTGGCACCGAGTCGGTGCT
*A* condition met

*Q* Further, for cr259 (nucleic acid, listed as DNA, chemistry not fully specified) guide: GTTTAAGAGCTAAGCTGGAAACAGCATAGCAAGTTTAAATAAGGCTAGTCCGTTATGTACTTCAAAAAGTGGCACCGAGTCGGTGCT ?
*A* condition met
